Hey, just so you know, these numbers are from ChEMBL document CHEMBL3244064.

Hi there, I'd appreciate the recorded Activity for every entry that follows.
- SUBJECT OF TEST: Adrenergic receptor alpha (Rattus norvegicus) (UniProt P15823+P23944+P43140+P22086+P19328+P22909)
- METHOD SUMMARY: Stimulation of alpha-adrenergic receptor in ICEM:CER SPF Caw rat vas deferens assessed as potentiation of norepinephrine response at 50 uM after 2 to 3 mins
- Assay type: protein assay
Give bare numbers, in %.

CC(C)(C)NCC(O)c1ccc([N+](=O)[O-])cc1 (stereo not drawn) | 127

For every item in the list below, what is its measured Activity?
1. O=[N+]([O-])c1ccc(C2CNCCO2)cc1 (stereo not drawn)
2. CN1CCOC(c2ccc([N+](=O)[O-])cc2)C1 (stereo not drawn)
3. CNCC(O)c1ccc([N+](=O)[O-])cc1 (stereo not drawn)

1. 203
2. 192
3. 253

Below are 4 compounds. Give each one its Activity.
1. CC(C)(C)N1CCOC(c2ccc([N+](=O)[O-])cc2)C1 (stereo not drawn)
2. CC(C)NCC(O)c1ccc([N+](=O)[O-])cc1 (stereo not drawn)
3. NCC(O)c1ccc([N+](=O)[O-])cc1 (stereo not drawn)
4. CC(C)N1CCOC(c2ccc([N+](=O)[O-])cc2)C1 (stereo not drawn)

1. 169
2. 209
3. 179
4. 223
